Parameter: normalised viability. Scope: all listed entries.
Tested on: DU-4475
method summary: normalised viability (% of control), CellTiter-Blue; higher = more viable cells (about 100 = DMSO control)
condition set: 3 nM; incubation time: 72 h
reported endpoint: normalised viability (%)

compound	reported endpoint	reading unit	val
CC(C)(C)c1cc(NC(=O)Nc2ccc(-c3cn4c(n3)sc3cc(OCCN5CCOCC5)ccc34)cc2)no1 [Quizartinib]	normalised viability	%	98.6
COc1cccc2c1C(=O)c1c(O)c3c(c(O)c1C2=O)C[C@@](O)(C(C)=O)C[C@@H]3O[C@H]1C[C@H](N)[C@H](O)[C@H](C)O1 [Daunorubicin]	normalised viability	%	86.3
COc1cc(Nc2ncc(F)c(Nc3ccc4c(n3)NC(=O)C(C)(C)O4)n2)cc(OC)c1OC [R406]	normalised viability	%	96.4
CC(=O)O[C@H]1C(=O)[C@@]2(C)[C@H]([C@H](OC(=O)c3ccccc3)[C@]3(O)C[C@H](OC(=O)[C@H](O)[C@@H](NC(=O)c4ccccc4)c4ccccc4)C(C)=C1C3(C)C)[C@]1(OC(C)=O)CO[C@@H]1C[C@@H]2O [Paclitaxel]	normalised viability	%	95.5
COc1c(C)cnc(Cn2cnc3c(Cl)nc(N)nc32)c1C [BIIB021]	normalised viability	%	94.8
CCCC(CCC)C(=O)O [Valproic acid]	normalised viability	%	88.6
CCOc1cc2ncc(C#N)c(Nc3ccc(OCc4ccccn4)c(Cl)c3)c2cc1NC(=O)/C=C/CN(C)C [Neratinib]	normalised viability	%	95.4
O=C(c1ccc(OCCN2CCCCC2)cc1)c1c(-c2ccc(O)cc2)sc2cc(O)ccc12 [Raloxifene]	normalised viability	%	105
C#Cc1cccc(Nc2ncnc3cc(OC)c(OCCCCCCC(=O)NO)cc23)c1 [CUDC-101]	normalised viability	%	84
